Below: a set of entries, each annotated with reported pIC50.
Target: Macrophage migration inhibitory factor (Homo sapiens, UniProt P14174)
Sequence (P14174 whole entry): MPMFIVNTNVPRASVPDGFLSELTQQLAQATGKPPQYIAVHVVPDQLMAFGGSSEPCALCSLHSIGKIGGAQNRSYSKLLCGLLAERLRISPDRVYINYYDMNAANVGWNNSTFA
Assay: Inhibition of human recombinant macrophage migration inhibitory factor tautomerase activity expressed in Escherichia coli DH5alpha using L-dopachrome methyl ester as substrate incubated for 5 mins prior to substrate addition measured for 2 mins by spectrophotometric analysis
Schema: pIC50 number; meaning minus log10 of the concentration expressed in molar units.

Recorded pIC50, per entry:
{"columns": ["COMPOUND", "REPORTED_METRIC", "VALUE_OBSERVED"],
 "data": [
  ["COc1ccc(CN=C=S)cc1", "pIC50", 6.15],
  ["Oc1cccc(CCN=C=S)c1", "pIC50", 4.21],
  ["C=CCN=C=S [ALLYL ISOTHIOCYANATE]", "pIC50", 5.96],
  ["NS(=O)(=O)c1ccc(CN=C=S)cc1", "pIC50", 6.12],
  ["FC(F)(F)c1ccc(CCN=C=S)cc1", "pIC50", 4.40],
  ["CC(CN=C=S)c1ccc(O)cc1 (configuration not stated)", "pIC50", 4.55],
  ["Oc1ccc(CCN=C=S)cc1", "pIC50", 5.44],
  ["CC(N=C=S)c1ccccc1 (configuration not stated) [1-PHENYLETHYL ISOTHIOCYANATE]", "pIC50", 6.00]
]}

Fetch value of pIC50 on Macrophage migration inhibitory factor (Homo sapiens, UniProt P14174) for C[S+]([O-])CCCCN=C=S (configuration not stated) [SULFORAPHANE] .
4.96
